Test: Cytotoxicity against human SHH+ HEK293a cells assessed as cell viability at 25 uM measured after 72 hrs by MTS assay relative to control
Type: toxicity, cell-based, HEK293-A
Conditions: read-out: Activity
Readout Name: viability at 72 h, 25 µM (%)
Number in %, nothing else.

Query: Can you share its viability at 72 h, 25 µM? I mean this compound: Cc1cccc(C2c3ccsc3CCN2C(=O)NCCCC(C)C)n1 (stereo unspecified)
Response: 22

====

Biological target: Protein-cysteine N-palmitoyltransferase HHAT (Homo sapiens)
Sequence (Q5VTY9 whole entry): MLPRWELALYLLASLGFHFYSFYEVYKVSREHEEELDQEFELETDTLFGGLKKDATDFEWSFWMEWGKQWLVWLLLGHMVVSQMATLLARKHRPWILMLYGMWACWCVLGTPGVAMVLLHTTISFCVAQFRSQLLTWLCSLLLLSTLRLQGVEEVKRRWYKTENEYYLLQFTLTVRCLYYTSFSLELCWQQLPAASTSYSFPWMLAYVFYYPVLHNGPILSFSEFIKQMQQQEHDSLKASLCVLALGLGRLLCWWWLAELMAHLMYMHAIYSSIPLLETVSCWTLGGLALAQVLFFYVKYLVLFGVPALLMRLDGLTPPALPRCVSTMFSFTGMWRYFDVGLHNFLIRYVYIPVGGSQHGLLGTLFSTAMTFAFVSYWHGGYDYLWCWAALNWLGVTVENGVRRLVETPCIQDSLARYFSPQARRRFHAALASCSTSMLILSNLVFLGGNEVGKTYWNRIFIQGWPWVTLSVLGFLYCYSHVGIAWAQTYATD
Assay: Inhibition of HHAT in human HEK293a SHH+ cells incubated with compound for 24 hrs followed by transferred into SHH-Light2 cells cellular incubated for 48 hrs by Renilla/Firefly luciferase reporter assay
pEC50: −log10 of the molar value.
Readout Name: pEC50

Query: # value lookup — system Protein-cysteine N-palmitoyltransferase HHAT (Homo sapiens), readout pEC50, item Cc1cccc([C@@H]2c3ccsc3CCN2C(=O)CNCC(C)C)n1
Response: < 4.52

Hello, the source for this data is ChEMBL document CHEMBL5335799, in case you need it.
